Origin of the recorded values: ChEMBL document CHEMBL5257115

Would you mind telling me the reported MIC of each entry?
- Tested on: Escherichia coli
- MEASUREMENT DESCRIPTION: Antibacterial activity against multidrug resistant Escherichia coli ATCC 25922 assessed as bacterial growth inhibition
- Format: functional
// return numeric value only (unit: µg/mL, not printed)

Problem: Give reported MIC value for CC[C@H](C)C(NC(=O)[C@@H]1CC[C@@H]2CN1C(=O)N2OS(=O)(=O)O)C(=O)NNC(=O)c1cn(C2CC2)c2cc(N3CCNCC3)c(F)cc2c1=O (stereo partly specified)
Solution: 32

Problem: Give reported MIC value for CC(C)[C@H](NC(=O)[C@@H]1CC[C@@H]2CN1C(=O)N2OS(=O)(=O)O)C(=O)NNC(=O)c1cn(C2CC2)c2cc(N3CCNCC3)c(F)cc2c1=O
Solution: 16

Problem: Give reported MIC value for O=C(CCCNC(=O)[C@@H]1CC[C@@H]2CN1C(=O)N2OS(=O)(=O)O)NNC(=O)c1cn(C2CC2)c2cc(N3CCNCC3)c(F)cc2c1=O
Solution: 8

Problem: Give reported MIC value for O=C(NNC(=O)[C@@H]1CC[C@@H]2CN1C(=O)N2OS(=O)(=O)O)c1cn(C2CC2)c2cc(N3CCNCC3)c(F)cc2c1=O
Solution: 16

Problem: Give reported MIC value for O=C(NNC(=O)[C@@H]1CCCN1C(=O)[C@@H]1CC[C@@H]2CN1C(=O)N2OS(=O)(=O)O)c1cn(C2CC2)c2cc(N3CCNCC3)c(F)cc2c1=O
Solution: 8
